molecular target: S-adenosylmethionine decarboxylase proenzyme 1 (Mus musculus); assay: Effect on S-Adenosyl-methionine decarboxylase (AdoMetDC) tested at 1 uM at 6 hour in L1210 cells; assay type: functional, cell-based
value.kind: AdoMetDC (%)

1. CCCNCCCCNCCCCNCCC
2. CCCNCCCCNCCCN
3. CCCNCCCNCCCN
Incoming: Order these by AdoMetDC, descending, and give the full ranking. Answer by listing the labels in the requested order.
Outgoing: 1, 2, 3

1. CCNCCCCCNCCCCCNCC
2. CCCNCCCCNCCCCN
3. CNCCCNCCCNC
Incoming: With regard to AdoMetDC, arrange the entries in ascending order, please. Thanks in advance for listing the labels in the requested order.
Outgoing: 3, 2, 1

a. CCCNCCCCCNCCCCCNCCC
b. CNCCCCNCCCNC
c. NCCCCNCCCN [SPERMIDINE]
Incoming: Arrange items by their AdoMetDC values in increasing order. List the labels, following the order given in the request.
Outgoing: c, b, a
(c: 43%, b: 68%, a: 123%)

1. CNCCCCCNCCCCCNC
2. CCNCCCNCCCCN
Incoming: Between 1 and 2 , which one shows the larger AdoMetDC value? // output: label of the selected item
Outgoing: 1

* * *

biological target: Spermidine/spermine N(1)-acetyltransferase (SAT) (Mus musculus) (UniProt Q6P8J2+P48026); test: Effect on Spermidine/Spermine-Acetyltransferase (SSAT ) at 10 uM at 48 hour in L1210 cells; type: functional, cell-based
Sequence (P48026 whole entry, looked up): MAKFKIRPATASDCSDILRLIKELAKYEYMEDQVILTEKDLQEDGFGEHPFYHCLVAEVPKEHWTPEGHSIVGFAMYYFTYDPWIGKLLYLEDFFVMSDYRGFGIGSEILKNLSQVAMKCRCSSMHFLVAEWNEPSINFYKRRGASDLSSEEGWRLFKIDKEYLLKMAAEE
Sequence (Q6P8J2 whole entry, looked up): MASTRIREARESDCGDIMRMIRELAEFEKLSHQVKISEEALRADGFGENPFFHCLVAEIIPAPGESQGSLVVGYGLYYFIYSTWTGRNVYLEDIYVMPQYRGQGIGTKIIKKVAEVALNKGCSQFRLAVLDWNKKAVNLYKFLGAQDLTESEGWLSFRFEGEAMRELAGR
value.kind: SSAT (%)

// below: answered compounds
{"compound.structure": "NCCCNCCCN", "SSAT, %": 150}
{"compound.structure": "CCNCCCNCCCNCC", "SSAT, %": 780}
{"compound.structure": "NCCCCNCCCN", "SSAT, %": 160}
{"compound.structure": "CCCNCCCCCNCCCCNCCC", "SSAT, %": 80}
{"compound.structure": "CNCCCCNCCCNC", "SSAT, %": 270}

P. CNCCCNCCCNC
Q. CCCNCCCNCCCN
Incoming: Among P and Q , whose measured SSAT is the smaller figure? Pick one; state its label.
Outgoing: P

A. CCCNCCCCNCCCNCCC
B. CNCCCCCNCCCCNC
C. NCCCCCNCCCCN
Incoming: Task field, ranking: reported SSAT, descending order. Would you mind listing the labels in the order requested?
Outgoing: A, C, B

A. CCNCCCCNCCCCNCC
B. NCCCCCNCCCCCN
C. CCNCCCNCCCN
Incoming: Order the records by SSAT, with each subsequent value no larger than the one before. The labels, placed in the requested order, form the answer.
Outgoing: A, C, B
(A: 640%, C: 390%, B: 90%)

* * *

test: Binding affinity values for polyamine transporter was determined
pKi: −log10 of the molar value.
value.kind: pKi

{"compound.structure": "NCCCNCCCN", "pKi": 5.14}

I. CCNCCCNCCCNCC
II. CCCNCCCCCNCCCCCNCCC
III. CCNCCCCNCCCN
Incoming: Arrange these compounds by their pKi, starting with the largest number. Provide your answer as the labels ordered per the instruction.
Outgoing: III, II, I

* * *

system: L1210; assay: Intracellular levels in L1210 cells following 500 uM exposure.; type: functional, Mus musculus
Here, each record is paired with measured Picoequivalents of amine/10e6 cells data.
Answer with a number only.

// solved cases for Picoequivalents of amine/10e6 cells follow
{"compound.structure": "CCNCCCNCCCCN", "system": "L1210", "result.value": 16990}
{"compound.structure": "CCCNCCCCNCCCCNCCC", "system": "L1210", "result.value": 15990}
{"compound.structure": "CCCNCCCCCNCCCCNCCC", "system": "L1210", "result.value": 15150}
{"compound.structure": "CCCNCCCNCCCNCCC", "system": "L1210", "result.value": 15010}
{"compound.structure": "CCCNCCCNCCCN", "system": "L1210", "result.value": 17710}

Incoming: Param item = CNCCCCNCCCNC ; retrieve measured Picoequivalents of amine/10e6 cells.
Outgoing: 16090

Incoming: Which measured Picoequivalents of amine/10e6 cells value corresponds to CNCCCCNCCCCNC ?
Outgoing: 20340

Incoming: Request the reported Picoequivalents of amine/10e6 cells associated with CNCCCCCNCCCCCNC
Outgoing: 15500

Incoming: Which Picoequivalents of amine/10e6 cells reading was recorded for the molecule CCNCCCCCNCCCCNCC ?
Outgoing: 14590

Incoming: Which Picoequivalents of amine/10e6 cells reading was recorded for the molecule CCNCCCCNCCCNCC ?
Outgoing: 14050

Incoming: Request the reported Picoequivalents of amine/10e6 cells associated with CNCCCNCCCNC
Outgoing: 18400

Incoming: Quick one: Picoequivalents of amine/10e6 cells for CCCNCCCCNCCCCN ?
Outgoing: 20550

Incoming: What value of Picoequivalents of amine/10e6 cells has been recorded for this entry: CCCNCCCCCNCCCCCNCCC
Outgoing: 13910

Incoming: # input molecule: CCNCCCCNCCCCNCC ; wanted: its Picoequivalents of amine/10e6 cells
Outgoing: 16920

Incoming: Sample CCCNCCCCNCCCNCCC — what was its Picoequivalents of amine/10e6 cells?
Outgoing: 15330

Incoming: I have this molecule here, CCCNCCCCNCCCN , and I need its recorded Picoequivalents of amine/10e6 cells.
Outgoing: 19590

Incoming: Item CCCNCCCNCCCCN has what recorded Picoequivalents of amine/10e6 cells?
Outgoing: 18250

Incoming: Record request: Picoequivalents of amine/10e6 cells value, item CCNCCCNCCCNCC
Outgoing: 13700
